Exercise: state measured q (ratio of the inhibition of trypsin to the inhibition of thrombin) for each of the compounds provided.
# assayed system: human thrombin (Homo sapiens, UniProt P00734)
# method notes: inhibition of the amidolytic activity of thrombin (chromogenic substrate S-2238)
# Type: biochemical
# cond: specificity: Ki trypsin / Ki thrombin
Give the figure only, with no unit attached.

Query: Recorded q (ratio of the inhibition of trypsin to the inhibition of thrombin) of CCCCN(CCC(=O)OCC)C(=O)[C@H](CC(=O)NC[C@@H]1CCCN(C(=N)N)C1)NC(=O)OCc1ccccc1 [Example 2c] , please.
Reply: 390

Query: Recorded q (ratio of the inhibition of trypsin to the inhibition of thrombin) of N=C(N)N1CCC[C@@H](CNC(=O)C[C@H](NC(=O)CCc2c[nH]c3ccccc23)C(=O)N(CCNC(=O)c2cnccn2)C2CC2)C1 [Example 21a] , please.
Reply: 3870

Query: Recorded q (ratio of the inhibition of trypsin to the inhibition of thrombin) of N=C(N)N1CCC[C@@H](CNC(=O)C[C@H](NC(=O)OCC2CCCCC2)C(=O)N(CC(=O)O)C2CC2)C1 [Example 8] , please.
Reply: 1588

Query: Recorded q (ratio of the inhibition of trypsin to the inhibition of thrombin) of CCCCC(=O)N[C@@H](CC(=O)NC[C@@H]1CCCN(C(=N)N)C1)C(=O)N(CC(=O)O)C1CC1 [Example 14a] , please.
Reply: 3368

Query: Recorded q (ratio of the inhibition of trypsin to the inhibition of thrombin) of CCCCN(CCC(=O)O)C(=O)[C@H](CC(=O)NCC1CN(C(=N)N)CCO1)NC(=O)OCc1ccccc1 (stereo partly drawn) [Example 6d] , please.
Reply: 90

Query: Recorded q (ratio of the inhibition of trypsin to the inhibition of thrombin) of CCCCN(CC(=O)O)C(=O)[C@H](CC(=O)NCC1CN(C(=N)N)CCO1)NC(=O)OCc1ccccc1 (stereo partly drawn) [Example 6b] , please.
Reply: 18571

Query: Recorded q (ratio of the inhibition of trypsin to the inhibition of thrombin) of N=C(N)N1CCC[C@@H](CNC(=O)C[C@H](NS(=O)(=O)N2CCOCC2)C(=O)N(CCNC(=O)c2ccc(=O)[nH]n2)C2CC2)C1 [Example 25] , please.
Reply: 5538

Query: Recorded q (ratio of the inhibition of trypsin to the inhibition of thrombin) of N=C(N)N1CCC[C@@H](CNC(=O)C[C@H]2C(=O)N(C3CC3)CC(=O)N2S(=O)(=O)c2ccc3ccccc3c2)C1 [Example 15] , please.
Reply: 7222

Query: Recorded q (ratio of the inhibition of trypsin to the inhibition of thrombin) of N=C(N)N1CCC[C@@H](CNC(=O)C[C@H](NC(=O)COc2ccccc2)C(=O)N(CCNC(=O)c2cnccn2)C2CC2)C1 [Example 21d] , please.
Reply: 19231

Query: Recorded q (ratio of the inhibition of trypsin to the inhibition of thrombin) of N=C(N)N1CCC[C@@H](CNC(=O)C[C@H](NS(=O)(=O)N2CCOCC2)C(=O)N(CCNC(=O)c2cnccn2)C2CC2)C1 [Example 24] , please.
Reply: 5917

Query: Recorded q (ratio of the inhibition of trypsin to the inhibition of thrombin) of CCOC(=O)CN(C(=O)[C@H](CC(=O)NCC1CN(C(=N)N)CCO1)NC(=O)OCc1ccccc1)C1CC1 (stereo partly drawn) [Example 5a] , please.
Reply: 26

Query: Recorded q (ratio of the inhibition of trypsin to the inhibition of thrombin) of CCCCN(CC(=O)O)C(=O)[C@H](CC(=O)NC[C@@H]1CCCN(C(=N)N)C1)NC(=O)OCc1ccccc1 [Example 4b] , please.
Reply: 438

Query: Recorded q (ratio of the inhibition of trypsin to the inhibition of thrombin) of N=C(N)N1CCC[C@@H](CNC(=O)C[C@H](NC(=O)OCc2ccccc2)C(=O)N(CCC(=O)O)C2CC2)C1 [Example 4a] , please.
Reply: 1051

Query: Recorded q (ratio of the inhibition of trypsin to the inhibition of thrombin) of COC(=O)CC[C@H](O)C(=O)N[C@@H](CC(=O)NC[C@@H]1CCCN(C(=N)N)C1)C(=O)N(CCNC(=O)c1cnccn1)C1CC1 [Example 21b] , please.
Reply: 1944

Query: Recorded q (ratio of the inhibition of trypsin to the inhibition of thrombin) of CCCCN(CC(=O)OCC)C(=O)[C@H](CC(=O)NC[C@@H]1CCCN(C(=N)N)C1)NC(=O)OCc1ccccc1 [Example 2b] , please.
Reply: 92

Query: Recorded q (ratio of the inhibition of trypsin to the inhibition of thrombin) of CCOC(=O)CN(C(=O)[C@H](CC(=O)NC[C@@H]1CCCN(C(=N)N)C1)NC(=O)OCC1CCCCC1)C1CC1 [Example 7] , please.
Reply: 25

Query: Recorded q (ratio of the inhibition of trypsin to the inhibition of thrombin) of N=C(N)N1CCC[C@@H](CNC(=O)C[C@H](NC(=O)Cc2ccccc2)C(=O)N(CC(=O)O)C2CC2)C1 [Example 14e] , please.
Reply: 852

Query: Recorded q (ratio of the inhibition of trypsin to the inhibition of thrombin) of CCCCN(CCC(=O)O)C(=O)[C@H](CC(=O)NC[C@@H]1CCCN(C(=N)N)C1)NC(=O)OCc1ccccc1 [Example 4c] , please.
Reply: 333

Query: Recorded q (ratio of the inhibition of trypsin to the inhibition of thrombin) of N=C(N)N1CCC[C@@H](CNC(=O)C[C@H](NC(=O)CSc2ncccn2)C(=O)N(CCNC(=O)c2cnccn2)C2CC2)C1 [Example 20] , please.
Reply: 5233

Query: Recorded q (ratio of the inhibition of trypsin to the inhibition of thrombin) of CCCCC(=O)N[C@@H](CC(=O)NC[C@@H]1CCCN(C(=N)N)C1)C(=O)N(CC(=O)OCC)C1CC1 [Example 13a] , please.
Reply: 26

Query: Recorded q (ratio of the inhibition of trypsin to the inhibition of thrombin) of N=C(N)N1CCC[C@@H](CNC(=O)C[C@H](NC(=O)c2cc(Cl)ccn2)C(=O)N(CC(=O)O)C2CC2)C1 [Example 14c] , please.
Reply: 877

Query: Recorded q (ratio of the inhibition of trypsin to the inhibition of thrombin) of CCCCN(CCC(=O)OCC)C(=O)[C@H](CC(=O)NCC1CN(C(=N)N)CCO1)NC(=O)OCc1ccccc1 (stereo partly drawn) [Example 5d] , please.
Reply: 92

Query: Recorded q (ratio of the inhibition of trypsin to the inhibition of thrombin) of CCCCCC(=O)N[C@@H](CC(=O)NC[C@@H]1CCCN(C(=N)N)C1)C(=O)N(CC(=O)OCC)C1CC1 [Example 13b] , please.
Reply: 183

Query: Recorded q (ratio of the inhibition of trypsin to the inhibition of thrombin) of N=C(N)N1CCC[C@@H](CNC(=O)C[C@H](NC(=O)c2ccccc2)C(=O)N(CC(=O)O)C2CC2)C1 [Example 14d] , please.
Reply: 332

Query: Recorded q (ratio of the inhibition of trypsin to the inhibition of thrombin) of N=C(N)N1CCOC(CNC(=O)C[C@H](NC(=O)OCc2ccccc2)C(=O)N(CC(=O)O)C2CC2)C1 (stereo partly drawn) [Example 6a] , please.
Reply: 311

Query: Recorded q (ratio of the inhibition of trypsin to the inhibition of thrombin) of CCOC(=O)CN(C(=O)[C@H](CC(=O)NC[C@@H]1CCCN(C(=N)N)C1)NC(=O)OCc1ccccc1)C1CC1 [Example 1] , please.
Reply: 58

Query: Recorded q (ratio of the inhibition of trypsin to the inhibition of thrombin) of N=C(N)N1CCC[C@@H](CNC(=O)C[C@H]2C(=O)N(C3CCCC3)CC(=O)N2S(=O)(=O)c2ccc3ccccc3c2)C1 [Example 16] , please.
Reply: 127
